Target: HDAC1 (Homo sapiens, UniProt Q13547)
Construct: HDAC1 1-482 Addgene; Strep-FLAG-HALO (N); made in house; host or cells: HEK293/T17
Sequence (Q13547 whole entry): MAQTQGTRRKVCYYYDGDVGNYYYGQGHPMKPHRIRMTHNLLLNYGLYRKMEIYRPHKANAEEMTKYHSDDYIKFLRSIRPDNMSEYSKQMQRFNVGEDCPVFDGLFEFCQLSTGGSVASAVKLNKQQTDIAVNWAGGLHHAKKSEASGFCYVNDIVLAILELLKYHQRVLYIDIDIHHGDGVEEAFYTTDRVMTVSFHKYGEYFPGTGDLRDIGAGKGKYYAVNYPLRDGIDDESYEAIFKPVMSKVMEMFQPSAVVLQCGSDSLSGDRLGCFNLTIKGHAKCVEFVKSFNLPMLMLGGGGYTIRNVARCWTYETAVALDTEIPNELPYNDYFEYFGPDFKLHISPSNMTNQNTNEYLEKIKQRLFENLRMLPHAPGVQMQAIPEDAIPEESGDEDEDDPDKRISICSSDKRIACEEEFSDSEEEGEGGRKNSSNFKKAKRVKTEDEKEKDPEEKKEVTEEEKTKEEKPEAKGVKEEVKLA
Assay: In vitro deacetylation assay, HDAC1 (GAK substrate)
Format: biochemical
Conditions: purified human HDAC1, GAK substrate 10 µM
TEST READOUT: pIC50
Answer as the number alone; pIC50 is minus log10 of concentration in mol/L.

# annotated cases, reported pIC50 shown
>  <MOLECULE>
O=C(NO)c1cnc(NC2(c3cccc(F)c3)CCCCC2)nc1 [ACY-775]

>  <ASSAYED SYSTEM>
HDAC1 (Homo sapiens, UniProt Q13547)

>  <pIC50>
5.92

$$$$
>  <MOLECULE>
O=C(CCCCCCC(=O)Nc1ccc([C@H]2O[C@@H](CSc3nc(-c4ccccc4)c(-c4ccccc4)o3)C[C@@H](c3ccc(CO)cc3)O2)cc1)NO [Tubacin]

>  <ASSAYED SYSTEM>
HDAC1 (Homo sapiens, UniProt Q13547)

>  <pIC50>
6.99

$$$$

Moving on to another molecule below.
Ask: Give the value of pIC50 reported for the following: CS(=O)(=O)N(Cc1ccc(C(=O)NO)cn1)c1cccc(Cl)c1 [compound 6]
Reply: 7.31
